- System: Leishmania donovani
- measurement-notes: Antileishmanial activity against Leishmania donovani by AlamarBlue assay
- Assay type: functional, organism-based
pIC50: −log10 of the molar value.

smiles-code | rel | pIC50
CC1=CC2=C(C=O)C(=O)[C@](C)(O)[C@@H](O)C2=CO1 | = | 4.09
CC(=O)O[C@H]1C2=COC(C)=CC2=C(C=O)C(=O)[C@]1(C)OC(C)=O | = | 4.23
CC1=CC2=C(CC3=C4C=C(C)OC=C4[C@H](O)[C@@](C)(O)C3=O)C(=O)[C@](C)(O)[C@@H](O)C2=CO1 | < | 4.03
C[C@@H]1[C@H](O)[C@@H](C)/C=C/C=C/C=C/C=C/C=C/C=C/C=C/[C@H](O[C@@H]2O[C@H](C)[C@@H](O)[C@H](N)[C@@H]2O)C[C@@H]2O[C@](O)(C[C@@H](O)C[C@@H](O)[C@H](O)CC[C@@H](O)C[C@@H](O)CC(=O)O[C@H]1C)C[C@H](O)[C@H]2C(=O)O | = | 6.85
COc1cc2oc(C)cc(=O)c2c(O)c1OC | < | 3.77
COc1cc2oc(C)cc(=O)c2c(O)c1C | < | 3.74
